# RUN DESCRIPTION: Study No. 15-3 toxicokinetics of fospropofol and propofol in plasma
# Type: in vivo, Sprague-Dawley rats
# CONDITION: female, Sprague-Dawley, rat, plasma, po, 50 mg/kg, oral gavage fospropofol disodium; Female; 50 mg/kg; Day 14; read-out: Fospropofol AUC0-6 hr
QUANTITY: AUC(0-t) (ng·h/mL)
// return numeric value only (unit: ng·h/mL, not printed)

Give me measured AUC(0-t), please, for this molecule: CC(C)c1cccc(C(C)C)c1OCOP(=O)(O)O [fospropofol]
160

---

# RUN DESCRIPTION: Study A17: PK of fospropofol and propofol after single oral dose of fospropofol disodium 800 mg in subjects with migraine
# CONDITION: female, human, plasma, po, 800 mg, Fospropofol Tmax, Mean, Mean without Subject 6008 (below limit of quantitation at all time points); Fospropofol Disodium 800 mg oral
QUANTITY: Tmax

Please give the documented Tmax of CC(C)c1cccc(C(C)C)c1OCOP(=O)(O)O [fospropofol]
19.8 min

---

# RUN DESCRIPTION: Study A16 Part 1: PK of single ascending oral doses of fospropofol disodium (200 to 2000 mg), fasted healthy adults
# Format: in vivo, human
# CONDITION: both sexes, human, plasma, po, 2000 mg, Propofol Cmax Minimum, oral fospropofol disodium 2000 mg
QUANTITY: Cmax (ng/mL)
Your answer is read as ng/mL, so omit the unit and give the number.

Specify Cmax for CC(C)c1cccc(C(C)C)c1O [propofol, 2,6-diisopropylphenol] and stop.
200

---

# RUN DESCRIPTION: Study A16 Part 1: PK of single ascending oral doses of fospropofol disodium (200 to 2000 mg), fasted healthy adults
# Format: in vivo, human
# CONDITION: female, human, plasma, oral, 800 mg, females only (800 mg cohort); Mean; read-out: Fospropofol Auc4
QUANTITY: AUC

Output AUC of CC(C)c1cccc(C(C)C)c1OCOP(=O)(O)O
3870 ng·h/mL

---

# RUN DESCRIPTION: Study No. 15-4 toxicokinetics of fospropofol and propofol in plasma
# Type: in vivo, Beagle dogs
# CONDITION: both sexes, Beagle, dog, plasma, oral; males and females; read-out: Fospropofol apparent individual terminal half-lives
QUANTITY: half-life

Look up half-life of CC(C)c1cccc(C(C)C)c1OCOP(=O)(O)O and report it.
18 to 36 min

---

# RUN DESCRIPTION: Study No. 15-4 toxicokinetics of fospropofol and propofol in plasma
# Format: in vivo, Beagle dogs
# CONDITION: female, beagle, dog, plasma, po, 50 mg/kg, oral gavage fospropofol disodium; Female; 50 mg/kg; Day 14; read-out: Fospropofol Tmax
QUANTITY: Tmax

Give the value of Tmax reported for the following: CC(C)c1cccc(C(C)C)c1OCOP(=O)(O)O
30 to 60 min

---

# RUN DESCRIPTION: Study A16 Part 1: PK of single ascending oral doses of fospropofol disodium (200 to 2000 mg), fasted healthy adults
# Format: in vivo, human
# CONDITION: both sexes, human, plasma, po, 1000 mg, Propofol Cmax Maximum, oral fospropofol disodium 1000 mg; n = 9
QUANTITY: Cmax (ng/mL)
Your answer should be a plain number; it is taken to be in ng/mL.

Identify the reported Cmax for the following entry. CC(C)c1cccc(C(C)C)c1O [propofol, 2,6-diisopropylphenol]
681

---

# RUN DESCRIPTION: Study No. 15-3 toxicokinetics of fospropofol and propofol in plasma
# Type: in vivo, Sprague-Dawley rats
# CONDITION: male, Sprague-Dawley, rat, plasma, po, 100 mg/kg, oral gavage fospropofol disodium; Male; 100 mg/kg; Day 1; read-out: Fospropofol Tmax
QUANTITY: Tmax (min)
Write down the numeric answer in min and omit the unit.

For the molecule CC(C)c1cccc(C(C)C)c1OCOP(=O)(O)O , report Tmax.
4.98

---

# RUN DESCRIPTION: Study No. 15-4 toxicokinetics of fospropofol and propofol in plasma
# Type: in vivo, Beagle dogs
# CONDITION: female, beagle, dog, plasma, po, 50 mg/kg, oral gavage fospropofol disodium; Female; 50 mg/kg; Day 1; read-out: Fospropofol Tmax
QUANTITY: Tmax

Quick one: give measured Tmax for CC(C)c1cccc(C(C)C)c1OCOP(=O)(O)O
30 to 60 min

---

# RUN DESCRIPTION: Study No. 15-4 toxicokinetics of fospropofol and propofol in plasma
# Format: in vivo, Beagle dogs
# CONDITION: female, beagle, dog, plasma, po, 100 mg/kg, oral gavage fospropofol disodium; Female; 100 mg/kg; Day 1; read-out: Fospropofol Tmax
QUANTITY: Tmax

Return Tmax for the following molecule: CC(C)c1cccc(C(C)C)c1OCOP(=O)(O)O [fospropofol]
15 to 30 min

---

# RUN DESCRIPTION: Study No. 15-3 toxicokinetics of fospropofol and propofol in plasma
# Type: in vivo, Sprague-Dawley rats
# CONDITION: male, Sprague-Dawley, rat, plasma, po, 250 mg/kg, oral gavage fospropofol disodium; Male; 250 mg/kg; Day 14; read-out: Fospropofol Tmax
QUANTITY: Tmax (min)
State the answer as a number, implicitly in min.

// Input: CC(C)c1cccc(C(C)C)c1OCOP(=O)(O)O . Output its Tmax only.
4.98

---

# RUN DESCRIPTION: Study A16 Part 1: PK of single ascending oral doses of fospropofol disodium (200 to 2000 mg), fasted healthy adults
# Assay type: in vivo, human
# CONDITION: both sexes, human, plasma; oral fospropofol disodium 200 mg; mean
QUANTITY: half-life (min)
Write it as a number; the unit min goes unstated.

Determine its reported half-life: CC(C)c1cccc(C(C)C)c1O
228

---

# RUN DESCRIPTION: Study A16 Part 1: PK of single ascending oral doses of fospropofol disodium (200 to 2000 mg), fasted healthy adults
# Type: in vivo, human
# CONDITION: both sexes, human, plasma, po, 200 mg, Propofol Cmax Maximum, oral fospropofol disodium 200 mg
QUANTITY: Cmax (ng/mL)
Dear colleague, please return just the value in ng/mL, with no unit written.

Report measured Cmax; entry is CC(C)c1cccc(C(C)C)c1O
191

---

# RUN DESCRIPTION: Study No. 15-1 (non-GLP): MTD and 7-day once daily oral gavage toxicity of fospropofol disodium
# Type: in vivo, Sprague-Dawley rats
# CONDITION: rat, in vivo; oral gavage, Sprague-Dawley rats
QUANTITY: MTD at 7 days (mg/kg/day)
Number in mg/kg/day, nothing else.

Give reported MTD at 7 days value for CC(C)c1cccc(C(C)C)c1OCOP(=O)([O-])O.[Na+] [fospropofol disodium]
250

---

# RUN DESCRIPTION: Study No. 15-3 toxicokinetics of fospropofol and propofol in plasma
# Format: in vivo, Sprague-Dawley rats
# CONDITION: female, Sprague-Dawley, rat, plasma, po, 250 mg/kg, oral gavage fospropofol disodium; Female; 250 mg/kg; Day 1; read-out: Fospropofol AUC0-6 hr
QUANTITY: AUC(0-t) (ng·h/mL)
Write it as a number; the unit ng·h/mL goes unstated.

Quickly give me recorded AUC(0-t) for CC(C)c1cccc(C(C)C)c1OCOP(=O)(O)O
4630

---

# RUN DESCRIPTION: Study No. 15-4 toxicokinetics of fospropofol and propofol in plasma
# Type: in vivo, Beagle dogs
# CONDITION: male, beagle, dog, plasma, po, 50 mg/kg, oral gavage fospropofol disodium; Male; 50 mg/kg; Day 14
QUANTITY: Cmax (ng/mL)
Supply the numeric figure in ng/mL, leaving out any unit text.

Look up and report measured Cmax for this entry: CC(C)c1cccc(C(C)C)c1OCOP(=O)(O)O
3300

---

# RUN DESCRIPTION: Study A16 Part 1: PK of single ascending oral doses of fospropofol disodium (200 to 2000 mg), fasted healthy adults
# Format: in vivo, human
# CONDITION: both sexes, human, plasma; oral fospropofol disodium 200 mg; mean; read-out: Fospropofol AUC0-∞
QUANTITY: AUC(0-inf)

Give me measured AUC(0-inf), please, for this compound: CC(C)c1cccc(C(C)C)c1OCOP(=O)(O)O
882 ng·h/mL

---

# RUN DESCRIPTION: Study No. 15-4 toxicokinetics of fospropofol and propofol in plasma
# Format: in vivo, Beagle dogs
# CONDITION: male, beagle, dog, plasma, po, 100 mg/kg, oral gavage fospropofol disodium; Male; 100 mg/kg; Day 1
QUANTITY: Cmax (ng/mL)
Give the quantity in ng/mL, number only.

Specify Cmax for CC(C)c1cccc(C(C)C)c1OCOP(=O)(O)O and stop.
9480

---

# RUN DESCRIPTION: Study A16 Part 1: PK of single ascending oral doses of fospropofol disodium (200 to 2000 mg), fasted healthy adults
# Assay type: in vivo, human
# CONDITION: both sexes, human, plasma, po, 200 mg, Propofol AUC0-∞, oral fospropofol disodium 200 mg; mean
QUANTITY: AUC(0-inf) (ng·h/mL)
# number only, unit ng·h/mL dropped from output

Look up AUC(0-inf) of CC(C)c1cccc(C(C)C)c1O and report it.
118
